TARGET_UNDER_TEST: T1, GHRH receptor on rat pituitary cells (rat, UniProt Q02644 23-464)
T1 sequence (looked up): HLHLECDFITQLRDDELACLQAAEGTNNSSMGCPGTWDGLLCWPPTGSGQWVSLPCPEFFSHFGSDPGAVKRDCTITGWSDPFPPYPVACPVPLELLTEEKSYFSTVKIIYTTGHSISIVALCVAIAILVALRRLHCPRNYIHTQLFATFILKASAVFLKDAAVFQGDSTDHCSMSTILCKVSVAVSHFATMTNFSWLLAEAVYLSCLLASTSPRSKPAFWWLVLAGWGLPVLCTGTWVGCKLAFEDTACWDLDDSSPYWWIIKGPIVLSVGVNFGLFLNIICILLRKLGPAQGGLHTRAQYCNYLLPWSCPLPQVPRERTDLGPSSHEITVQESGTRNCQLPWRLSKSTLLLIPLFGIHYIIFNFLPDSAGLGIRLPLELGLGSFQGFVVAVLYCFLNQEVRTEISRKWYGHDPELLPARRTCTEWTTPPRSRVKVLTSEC
ASSAY_SUMMARY: cell-based or functional assay
Starred links: 1 amine or outer side, 2 acyl side, 3 side chain; linkers in the order of their positions; H or OH if unused. Non-standard residues stand in square brackets, D forms with d. No end group written: not given here. *: point of attachment. Tyr(Me) = O-methyltyrosine, COc1ccc(C[C@H](N[*:1])C(=O)[*:2])cc1; Phenylacetyl(2,3,4,5,6-F5) = O=C(Cc1c(F)c(F)c(F)c(F)c1F)*; Phe(F5) = N[C@@H](Cc1c(F)c(F)c(F)c(F)c1F)C(=O)O; Phe(4-Cl) = N[C@@H](Cc1ccc(Cl)cc1)C(=O)O; hArg = N=C(N)NCCCC[C@H](N)C(=O)O; Nle = CCCC[C@H](N)C(=O)O; Orn = NCCC[C@H](N)C(=O)O; Abu = CC[C@H](N)C(=O)O; Ada = not defined here; Cpa = not defined here
QUANTITY_NAME: Relative GH release

// solved cases for Relative GH release follow
INSERT INTO assay_data (binder, quantity_name, reported_measurement) VALUES
  ('{Phenylacetyl(2,3,4,5,6-F5)-Ada}-Y[dR]DAI[Phe(F5)]TA[hArg][Tyr(Me)]RKVL[Abu]QLSARKLLQDI[Nle][dR][hArg]-{Ada-NH2} (not fully specified; reading uncertain) [AVR-352]', 'Relative GH release', '0.72 relative to control (1.00)'),
  ('{Phenylacetyl(2,3,4,5,6-F5)-Ada}-Y[dR]DAI[Phe(4-Cl)]TA[hArg][Phe(F5)]RKVL[Abu]QLSARKLLQDI[Nle][dR][hArg]-{Ada-NH2} (reading uncertain, Synthetic GHRH antagonist) [AVR-353]', 'Relative GH release', '0.65 relative to control (1.00)'),
  ('{Phenylacetyl(2,3,4,5,6-F5)-Ada}-Y[dR]DAI[Phe(4-Cl)]TA[hArg][Phe(F5)]RKVL[Abu]QLSARKLLQDI[Nle][dR][hArg] (not fully specified (C-terminus); reading uncertain) [AVR-354]', 'Relative GH release', '0.9 relative to control (1.00)'),
  ('{Phenylacetyl(2,3,4,5,6-F5)-Ada}-Y[dR]DAI[Phe(F5)]TA[hArg][Tyr(Me)]RKVL[Abu]QLSARKLLQDI[Nle][dR]-NHMe (reading uncertain) [AVR-235]', 'Relative GH release', '0.6 relative to control (1.00)'),
  ('{Phenylacetyl(2,3,4,5,6-F5)-Ada}-Y[dR]DAI[Cpa]TA[hArg][Phe(F5)]H[Orn]VL[Abu]QLSAH[Orn]LLQDI[Nle][dR][hArg]-{Ada-NHMe} (reading uncertain, Synthetic GHRH antagonist) [AVR-543]', 'Relative GH release', '1.1 relative to control (1.00)');

Here are 2 binders. What values of Relative GH release were reported for them?
1. {Phenylacetyl(2,3,4,5,6-F5)-Ada}-Y[dR]DAI[Phe(4-Cl)]TN[hArg][Tyr(Me)]RKVL[Abu]QLSARKLLQDI[Nle][dR][hArg]-{Ada-NH2} (reading uncertain, Synthetic GHRH antagonist) [AVR-333]
2. {Phenylacetyl(2,3,4,5,6-F5)-Ada}-Y[dR]DAI[Phe(F5)]TA[hArg][Tyr(Me)]H[Orn]VL[Abu]QLSAH[Orn]LLQDI[Nle][dR][hArg]-{Ada-NH2} (reading uncertain, Synthetic GHRH antagonist) [AVR-553]

(A)
["0.88 relative to control (1.00)", "0.82 relative to control (1.00)"]

Cited source: patent US20220000983A1
